assay.details: qHTS assay to identify small molecule HDAC inhibitors (AID 1259364);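 further: wild-type HCT-116 cells with endogenous class I/II HDAC activity; nearly all actives have a fitted effect of over 45% in size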
study.conditions: HCT-116 HDAC-Glo I/II luminescence, 2 h; series mostly up to 92.4 µM
Inconclusive results are not listed. The source made the active and inactive calls. The call rests on the fitted dose curve; in most records, active means well fitted inhibition curve with a large enough effect in the repeat runs; inconclusive means weak or mixed curves; inactive means flat fitted curve, though single readings scatter.
// one of active, inactive, no free text

Worked cases, answers included:
| molecule | answer.label |
| --- | --- |
| [Cl][Dy]([Cl])[Cl] | inactive |
| COC(=O)c1ccc([N+](=O)[O-])cc1 | inactive |
| Cc1cc(C)c(O)c(C(C)(C)C)c1 | inactive |
| CCN(CCC#N)c1ccc(N=Nc2ccc([N+](=O)[O-])cc2)cc1 | active |
| CN1CCN(c2ccccc2/C=C2\SCCN(c3ccc(Cl)c(Cl)c3)C2=O)CC1 | inactive |

Hey, what did the test say about Nc1ccc(F)c([N+](=O)[O-])c1 ? inactive

Short answer needed: outcome of this test for NCc1ccco1 ? inactive

Hi, sorry to bother you, what did the test record for O=c1cc[nH]cc1 ? inactive

Record request — test call for C=COCCCC inactive

What did the test return for CC(O)(c1ccc(Cl)cc1)c1ccc(Cl)cc1 ? inactive

Which outcome did this test record for the molecule CN[C@H]1CC[C@@H](c2ccc(Cl)c(Cl)c2)c2ccc(S(N)(=O)=O)cc21 ? inactive

In this assay, the call recorded for Cc1ccc(C2OC[C@@H]3OC(c4ccc(C)cc4)O[C@H]([C@H](O)CO)[C@@H]3O2)cc1 (stereo partly drawn) was what? inactive

Please indicate how the test categorized O=C(Nc1ccccc1)c1cc(Cl)ccc1O . active

Test call, this molecule: CCCCCCCCCCCCCCCCCCNC(=O)OC1CCN(C(=O)OC[C@H](COC(=O)N(Cc2cccc[n+]2CC)C(=O)c2ccccc2OC)OC)CC1 inactive

Please indicate how the test categorized CC(=O)N(C)C . inactive

Hey, just so you know, these numbers are from PubChem BioAssay (Tox21).
